Assay: Pharmacokinetic (PK) assay in mice
Format: in vivo
Settings: mouse, plasma; Po 5 mg/kg, CD-1 mice
Items are presented alongside their recorded AUC(0-t).
Write the value in ng·h/mL as a bare number.

1. CCS(=O)(=O)c1ccc(-c2c(Cl)cc(NC(=O)Cc3ccc(S(=O)(=O)CC)cn3)cc2Cl)cc1 = 1420

Problem: Query AUC(0-t) for COCC(C(=O)Nc1ccc(-c2ccc(S(=O)(=O)C3CC3)cc2)c(C(F)(F)F)c1)c1ccc(S(C)(=O)=O)cc1 (single isomer, unassigned)
Result: 17100

Problem: Query AUC(0-t) for CCS(=O)(=O)c1ccc(C(COC)C(=O)Nc2cc(Cl)c(-c3ccc(S(C)(=O)=O)cc3)c(Cl)c2)cc1 (stereo not drawn)
Result: 4240

Problem: Query AUC(0-t) for CCS(=O)(=O)c1ccc(-c2c(Cl)cc(NC(=O)C(COC)c3ccc(S(C)(=O)=O)cc3)cc2Cl)cc1 (stereo not drawn)
Result: 924

Problem: Query AUC(0-t) for CCS(=O)(=O)c1ccc(-c2c(Cl)cc(NC(=O)C(COC)c3ccc(S(=O)(=O)CC)cc3)cc2Cl)cc1 (stereo not drawn)
Result: 952

Problem: Query AUC(0-t) for COC[C@H](C(=O)Nc1cc(Cl)c(-c2ccc(S(=O)(=O)C3CC3)cc2)c(Cl)c1)c1ccc(S(C)(=O)=O)cc1 (single isomer, unassigned)
Result: 9140

* * *

Items are presented alongside their recorded Cmax.
Test: Pharmacokinetic (PK) assay in mice
Format: in vivo
Details: mouse, plasma; Po 5 mg/kg, CD-1 mice
Write the value in ng/mL as a bare number.

Below: 2 molecules and their reported Cmax.
1. CCS(=O)(=O)c1ccc(C(CO)C(=O)Nc2cc(Cl)c(-c3ccc(S(=O)(=O)C4CC4)cc3)c(Cl)c2)cc1 (single isomer, unassigned) = 400
2. CC(C)(C[C@H]1CN(S(=O)(=O)c2cccc(C(F)(F)F)c2)c2cc(-c3cc(F)cc(OC(F)F)c3)ccc2O1)C(=O)O [LYC-55716, reference compound] = 52.6

Let us move to another entry and its Cmax.
Problem: Query Cmax for CCS(=O)(=O)c1ccc(C(COC)C(=O)Nc2cc(Cl)c(-c3ccc(S(=O)(=O)C4CC4)cc3)c(Cl)c2)cc1 (stereo not drawn) [Example 16]
Result: 1420

* * *

Items are presented alongside their recorded % Remaining (T = 60 min).
Assay: Metabolic stability in human liver microsomes
Type: in vitro ADME
Conditions: 60 min
Write the value in % as a bare number.

Below: 4 compounds and their reported % Remaining (T = 60 min).
1) CCS(=O)(=O)c1ccc(-c2c(Cl)cc(NC(=O)C(COC)c3ccc(S(C)(=O)=O)cc3)cc2Cl)cc1 (stereo not drawn) = 60
2) COCC(C(=O)Nc1ccc(-c2ccc(S(=O)(=O)C3CC3)cc2)c(C(F)(F)F)c1)c1ccc(S(C)(=O)=O)cc1 (single isomer, unassigned) = 69
3) CCS(=O)(=O)c1ccc(C(COC)C(=O)Nc2cc(Cl)c(-c3ccc(S(=O)(=O)C4CC4)cc3)c(Cl)c2)cc1 (single isomer, unassigned) [Example 40] = 71.1
4) CS(=O)(=O)c1ccc(-c2c(Cl)cc(NC(=O)Cc3ccc(S(=O)(=O)CCO)cc3)cc2Cl)cc1 = 61.7

Problem: Query % Remaining (T = 60 min) for CCS(=O)(=O)c1ccc(-c2c(Cl)cc(NC(=O)C(COC)c3ccc(S(=O)(=O)CC)cc3)cc2Cl)cc1 (stereo not drawn)
Result: 71.4

Problem: Query % Remaining (T = 60 min) for "CCS(=O)(=O)c1ccc(-c2c(Cl)cc(NC(=O)Cc3ccc(S(C)(=O)=O)cn3)cc2Cl)cc1"
Result: 102.5
